We begin with a simple list: items and their reported Kd.
target: RSV prefusion F (preF), DS-Cav1 (Respiratory syncytial virus, UniProt P03420 26-513); assay: BLI, IgG on anti-human IgG sensor, 100 nM antigen
Quick reminder: number only, in nM, skip the unit.

binder="ADI-41607 (antibody, V domains shown) VH: EVQLVESGPGLVKPSQTLSLTCTVSGGSINIGGYYWSWIRQHPEKGLEWIGYIYYSGTTYYNPSLESRVTISIDTSKNQFSLNLSSVTAADTAVYYCASVDQIGATRFDYWGQGTLVTVSS VL: QPVLTQPRSVSGSPGQSVTLSCTGTSSDVGTYNYVSWYQHHPGKAPKLIIYDVNKRPSGVPDRFSGSKSGNTASLTISGLQAEDEADYYCCSYAGSYTLNYVFGTGTKLTVL" numeric_readout=4.24

Q: Any idea what Kd was measured for ADI-41790 (antibody, V domains shown) VH: QVQLVQSGAEVKKPGSSVKVSCKASGGTFSNYGISWVRQAPGQGLERLGGIIPIYGTANHAQNFQGRVTITADESTSTAYMELSSLRSEDTAVYYCARDGTFVRYYGMDVWGQGTTVTVSS VL: EIVLTQSPATLFLSPGERATLSCRASQSVSNYLAWFQQKPGQAPRLLIYDTSIRATGIPARFSGSGSGTDFTLTISSLEPEDFAFYYCQQRSNWPPTFGGGTKLEIK ?
Result: 3.15

Entry source: patent US20260258115A1
